Measured growth inhibition values are reported for all entries that follow.
# Tested on: SUDIPGXIII (diffuse intrinsic pontine glioma line)
# experiment_notes: growth inhibition (% activity, log2 RLU normalised to DMSO / staurosporine); higher = more growth inhibition
# condition_context: 33 µM
Value expressed in %; do not type the unit.

INSERT INTO results (compound, observable, endpoint_value) VALUES
  ('NNc1nncc2ccccc12', 'growth inhibition', -0.215),
  ('COc1cc(Cc2cnc(N)nc2N)cc(OC)c1OC', 'growth inhibition', -1.4),
  ('O=S(=O)(O)Oc1ccc(C(c2ccc(OS(=O)(=O)O)cc2)c2ccccn2)cc1', 'growth inhibition', 0.476),
  ('Cc1cc2c(cc1S(N)(=O)=O)S(=O)(=O)CCC2', 'growth inhibition', 1.65);

Kindly review the next compound as well.
Indicate its recorded growth inhibition; the compound in question is Cc1nnc(C(C)C)n1C1C[C@H]2CC[C@@H](C1)N2CC[C@H](NC(=O)C1CCC(F)(F)CC1)c1ccccc1 (stereo in doubt)
-1.27

* * *

# System: HGGX6 (H3.3 G34R paediatric high-grade glioma line)
# experiment_notes: growth inhibition (% activity, log2 RLU normalised to DMSO / staurosporine); higher = more growth inhibition
# condition_context: 33 µM
observable: growth inhibition (%)
Give your result in % as a bare value.

INSERT INTO measurements (molecule, endpoint_unit, endpoint_value) VALUES
  ('CC1(C)O[C@@H]2C[C@H]3[C@@H]4CCC5=CC(=O)C=C[C@]5(C)[C@@]4(F)[C@@H](O)C[C@]3(C)[C@]2(C(=O)CO)O1', '%', 0.928),
  ('CC[C@H](C)C(=O)O[C@H]1C[C@@H](C)C=C2C=C[C@H](C)[C@H](CC[C@@H]3C[C@@H](O)CC(=O)O3)[C@H]21', '%', 10.8),
  ('NS(=O)(=O)c1cc2c(cc1Cl)NCNS2(=O)=O', '%', -0.432),
  ('C#CC1(O)CC[C@H]2[C@@H]3CCC4=CC(=O)CC[C@@H]4[C@H]3CC[C@@]21CC (stereo not given in full)', '%', 0.889),
  ('NCC1OC(OC2C(N)CC(N)C(OC3OC(CO)C(O)C(N)C3O)C2O)C(N)C(O)C1O (stereo not given)', '%', -1.9);

Turning to the following molecule.
Given "CC(C)(S)[C@@H](N)C(=O)O" , report its growth inhibition on HGGX6.
-2.1

* * *

# Tested on: SUDIPGIV (diffuse intrinsic pontine glioma line)
# experiment_notes: growth inhibition (% activity, log2 RLU normalised to DMSO / staurosporine); higher = more growth inhibition
# condition_context: 33 µM
observable: growth inhibition (%)
Numeric answer only, unit % assumed.

INSERT INTO assay_data (compound, endpoint_unit, endpoint_value) VALUES
  ('Cn1c(=O)c2[nH]cnc2n(C)c1=O', '%', -0.366),
  ('Cc1cccc(N(C)C(=S)Oc2ccc3ccccc3c2)c1', '%', -3.02);

Supply measured growth inhibition of "NC(=O)N1c2ccccc2CC(=O)c2ccccc21" in your reply.
-3.93

Read off the recorded growth inhibition for "CN(C)CCc1c[nH]c2ccc(Cn3cncn3)cc12"
-0.297

Quick one: give measured growth inhibition for "CC(C)c1nc(CN(C)C(=O)N[C@@H](CCN2CCOCC2)C(=O)N[C@H](CC[C@H](Cc2ccccc2)NC(=O)OCc2cncs2)Cc2ccccc2)cs1"
-0.101

Determine from records and report growth inhibition for CC(c1cc2ccccc2s1)N(O)C(N)=O (centres undefined)
-2.98

Give the measured growth inhibition for "O=c1[nH]c(=O)n([C@H]2C[C@H](O)[C@@H](CO)O2)cc1C(F)(F)F"
13.1

* * *

# Test system: DIPGX29 (H3.3 K27M diffuse intrinsic pontine glioma line)
# experiment_notes: growth inhibition (% activity, log2 RLU normalised to DMSO / staurosporine); higher = more growth inhibition
# condition_context: 33 µM
Let's look at some molecules and their measured growth inhibition.
Give just the number in %; leave the unit off.

Examples with answers:
INSERT INTO measurements (molecule, system_name, endpoint_value) VALUES
  ('CCn1nc(C(=O)O)c(=O)c2cc3c(cc21)OCO3', 'DIPGX29', 0.16),
  ('CCOC(=O)C1=C[C@]2(CC)CCCN3CCc4c(n1c1ccccc41)[C@@H]32', 'DIPGX29', -2.05),
  ('COC(=O)C1=C(C)NC(C)=C(C(=O)OCCN(C)Cc2ccccc2)C1c1cccc([N+](=O)[O-])c1 (centres undefined)', 'DIPGX29', 1.83);

Proceeding to the next molecule to report its growth inhibition.
Give the measured growth inhibition for "O=C(O)c1cccnc1"
0.555

* * *

Known growth inhibition of a selection of compounds
# Tested on: DIPGX7 (H3.3 K27M diffuse intrinsic pontine glioma line)
# experiment_notes: growth inhibition (% activity, log2 RLU normalised to DMSO / staurosporine); higher = more growth inhibition
# condition_context: 33 µM
Could you give me the number in %? Just the number is fine.

Study these solved cases before continuing.
INSERT INTO measurements (compound, endpoint_unit, endpoint_value) VALUES
  ('CCN(CC)CCOC(=O)c1ccc(N)cc1', '%', 2.21),
  ('Cn1c(=O)c2c(ncn2CC(O)CO)n(C)c1=O (centres undefined)', '%', 1.95),
  ('NCCCC(O)(P(=O)(O)O)P(=O)(O)O', '%', 0.704);

Give the value of growth inhibition reported for the following: "[O-][n+]1cccc(CO)c1"
-0.893

Dear colleague, please send me the reported growth inhibition for Nc1cccc2c1C(=O)N(C1CCC(=O)NC1=O)C2=O (centres undefined) when you can.
0.718

* * *

# Test system: SUDIPGIV
# experiment_notes: growth inhibition (% activity, log2 RLU normalised to DMSO / staurosporine); higher = more growth inhibition
# condition_context: 33 µM
observable: growth inhibition (%)
Numeric answer only, unit % assumed.

INSERT INTO measurements (compound, observable, endpoint_value) VALUES
  ('O=C(NC(Cc1cc(=O)[nH]c2ccccc12)C(=O)O)c1ccc(Cl)cc1 (stereo unspecified)', 'growth inhibition', -0.753),
  ('O=P(O)(O)C(O)(Cn1ccnc1)P(=O)(O)O', 'growth inhibition', 1.08),
  ('Cc1cccc(C)c1OCC(C)N (stereo unspecified)', 'growth inhibition', -0.767),
  ('O=C([O-])c1ccccc1O.[Na+]', 'growth inhibition', 1.6),
  ('O=C(O[C@H]1CN2CCC1CC2)N1CCc2ccccc2[C@@H]1c1ccccc1', 'growth inhibition', -0.487);

Input "CCN(CC)C(=O)/C(C#N)=C/c1cc(O)c(O)c([N+](=O)[O-])c1" , output reported growth inhibition.
-1.01

Output growth inhibition of "COc1ccc(/C=C/C(=O)Nc2ccccc2C(=O)O)cc1OC"
0.158

Let me know recorded growth inhibition for "CCOC(=O)[C@H](CCc1ccccc1)N[C@@H](C)C(=O)N1Cc2ccccc2C[C@H]1C(=O)O" , thanks.
3.99

Using the record for "CN1C[C@@H]2C[C@H]1CN2c1cc2c(cc1F)c(=O)c(C(=O)O)cn2C1CC1" , state its measured growth inhibition.
4.42

Please supply the value of reported growth inhibition for the item "CN1CCC[C@H]1c1cccnc1"
-0.338

Please give the documented growth inhibition of "CC(C)Cn1cnc2c(N)nc3ccccc3c21"
0.0825

* * *

growth inhibition overview
# Tested on: HNSC
# experiment_notes: growth inhibition (% activity, log2 RLU normalised to DMSO / staurosporine); higher = more growth inhibition
# condition_context: 33 µM
Kindly answer with a numeric value in %, unit omitted.

Provide measured growth inhibition on HNSC for "CC1=CC(=O)c2ccccc2C1=O" please.
42.7

Fill in: growth inhibition on HNSC, entry "CC(C)(CO)[C@@H](O)C(=O)NCCC(=O)O"
-0.802

// fetch growth inhibition; item: "C[C@@H]1CCN(C(=O)CC#N)C[C@@H]1N(C)c1ncnc2[nH]ccc12" ; system: HNSC
19.9

Write down the reported growth inhibition (system: HNSC) of "CNCC[C@H](Oc1cccc2ccccc12)c1cccs1"
16.9

Please report growth inhibition with HNSC for item "O=C([O-])c1ccccc1O.[Na+]" .
28.2

Give growth inhibition for this entry on HNSC: "CN(C)[C@@H]1C(O)=C(C(=O)NCN2CCCC2)C(=O)[C@@]2(O)C(O)=C3C(=O)c4c(O)cccc4[C@@](C)(O)[C@H]3C[C@@H]12"
-2.27

State the measured growth inhibition (HNSC) of "NC12CC3CC(CC(C3)C1)C2"
-2.35

Give growth inhibition only, for CN(C)CCC(c1ccccc1)c1ccccn1 (stereo unspecified) , using HNSC data.
1.8

Supply growth inhibition measured with HNSC for OC(CNCC(O)C1CCc2cc(F)ccc2O1)C1CCc2cc(F)ccc2O1 (stereo unspecified) .
2.72

Give growth inhibition only, for "COCCCC/C(=N\OCCN)c1ccc(C(F)(F)F)cc1" , using HNSC data.
-3.83

Provide the reported growth inhibition (system: HNSC) for Clc1ccc(C(Cn2ccnc2)OCc2ccc(Sc3ccccc3)cc2)c(Cl)c1 (stereo unspecified)
14
